- EXPERIMENTAL TARGET: T1, human IGFBP-1 (human, UniProt P08833 26-259)
- T1 construct: Secreted recombinant protein
- T1 sequence (looked up): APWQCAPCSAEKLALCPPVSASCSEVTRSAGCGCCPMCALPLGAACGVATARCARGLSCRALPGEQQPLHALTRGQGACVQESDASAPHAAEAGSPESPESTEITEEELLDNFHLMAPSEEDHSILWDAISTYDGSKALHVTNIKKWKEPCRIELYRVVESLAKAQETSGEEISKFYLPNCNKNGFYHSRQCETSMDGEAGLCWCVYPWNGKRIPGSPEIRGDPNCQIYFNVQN
- ASSAY COMMENT: competitive phage ELISA, soluble IGFBP-1
pIC50: −log10 of the molar value.
Collected pIC50 values appear next to each entry.
MEASURED METRIC: pIC50

BINDER	RECORDED VALUE
IGF-I P28A (on G1S-A70V) displayed on phage (ligand, not shown: large carriers; small tags and cut ends) SPETLCGAELVDALQFVCGDRGFYFNKATGYGSSSRRAPQTGIVDECCFRSCDLRRLEMYCAPLKPAKSV	8.03
IGF-I G32A (on G1S-A70V) displayed on phage (ligand, not shown: large carriers) SPETLCGAELVDALQFVCGDRGFYFNKPTGYASSSRRAPQTGIVDECCFRSCDLRRLEMYCAPLKPAKSV	7.96
IGF-I S33A (on G1S-A70V) displayed on phage (ligand, not shown: large carriers) SPETLCGAELVDALQFVCGDRGFYFNKPTGYGASSRRAPQTGIVDECCFRSCDLRRLEMYCAPLKPAKSV	8.04
IGF-I Y31A (on G1S-A70V) displayed on phage (ligand, not shown: large carriers) SPETLCGAELVDALQFVCGDRGFYFNKPTGAGSSSRRAPQTGIVDECCFRSCDLRRLEMYCAPLKPAKSV	8.17
IGF-I P2A (on G1S-A70V) displayed on phage (ligand, not shown: M13 gene III fragment (residues 249-406) used as phage-display carrier, and its junction to IGF-I) SAETLCGAELVDALQFVCGDRGFYFNKPTGYGSSSRRAPQTGIVDECCFRSCDLRRLEMYCAPLKPAKSV	7.96
